# methodSummary: physchem
# studyConditions: octanol/water
Provide the recorded logD for the entries that follow.
One number for each entry.

Batch request: logD per item, same order as input.
1. CCCC1(C(=O)c2ccc3[nH]ccc3c2)CCCN1 (stereo not given)
2. CC(C)(C)CCC1(C(=O)c2ccc3[nH]ncc3c2)CCCN1 (stereo not given)
3. CC(C)CC1(C(=O)c2ccc3[nH]ncc3c2)CCCN1 (stereo not given)
4. CCCC1(C(=O)c2ccc3[nH]ncc3c2)CCCN1 (stereo not given)
5. CC(C)OCC1(C(=O)c2ccc(N)c(Cl)c2)CCCN1 (single isomer, unassigned; (+))

1: 1.45; 2: 2.03; 3: 1; 4: 1; 5: 0.84

Numbers sourced from ChEMBL document CHEMBL1221322.
